List of Anti-CD28 Fab signal values.
TARGET OR TEST SYSTEM: Anti-CD28 Fab (SEQ ID NOs: 202, 203)
Sequence (VH, as listed by the source, chain 1 of 2): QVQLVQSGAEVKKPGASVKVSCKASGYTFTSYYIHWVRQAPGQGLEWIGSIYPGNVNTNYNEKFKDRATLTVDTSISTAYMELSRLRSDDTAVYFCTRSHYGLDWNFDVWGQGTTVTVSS
Sequence (VL, as listed by the source, chain 2 of 2): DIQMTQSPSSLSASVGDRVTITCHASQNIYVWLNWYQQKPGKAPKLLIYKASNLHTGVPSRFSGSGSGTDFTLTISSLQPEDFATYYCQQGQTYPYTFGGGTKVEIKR
PROTOCOL TEXT: phage binding ELISA on captured Fab;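 also: clonal phage supernatants added briefly to wells pre-incubated with CD28 antigen or with blocking buffer only, then washed, bound phage read by ELISA using HRP-coupled anti-M13 antibody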
Returns: the value as a bare number; no unit string appended.

Sample records with Anti-CD28 Fab signal:
{"BINDER": "YCAGHLPQYMAKCL [Phage-55]", "Anti-CD28 Fab signal": 2.41}
{"BINDER": "YCEGHRPEYILKCL [Phage-26]", "Anti-CD28 Fab signal": 1.27}

Read off the recorded Anti-CD28 Fab signal for YCDGHLPEYMSKCM [Phage-66]
2.38

Read off the recorded Anti-CD28 Fab signal for YCAGMSTIQLWLKC [Phage-20]
2.16

Provenance of the data: patent US20260274955A1
